# test system: UniProt P32300
# Sequence (P32300 whole entry): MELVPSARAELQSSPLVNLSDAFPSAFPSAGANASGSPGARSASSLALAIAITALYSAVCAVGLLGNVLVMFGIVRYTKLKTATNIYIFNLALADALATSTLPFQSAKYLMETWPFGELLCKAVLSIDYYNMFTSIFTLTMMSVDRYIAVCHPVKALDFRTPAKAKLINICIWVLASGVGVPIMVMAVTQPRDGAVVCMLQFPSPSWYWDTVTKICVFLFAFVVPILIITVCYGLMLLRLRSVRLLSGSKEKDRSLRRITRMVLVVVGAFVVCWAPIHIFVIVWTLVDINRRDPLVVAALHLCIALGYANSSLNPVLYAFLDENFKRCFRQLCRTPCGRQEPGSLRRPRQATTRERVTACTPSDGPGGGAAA
# assay remarks: cell-based
# Assay type: cell-based
# details: HEK293, read-out: Max Inhibition %
Label Yes for high-side Emax (at or above 70%) and No for low-side Emax (below it).

Reference set, count: 3
| molecule | class |
| --- | --- |
| C[C@@]12CCCCC[C@@H](Cc3ccc(O)cc31)[C@@H]2N [Dezocine] | No |
| C[C@H]1[C@H]2Cc3ccc(O)cc3[C@]1(C)CCN2C [Metazocine] | Yes |
| C[C@H]1[C@H]2Cc3ccc(O)cc3[C@]1(C)CCN2CC1CC1 [Cyclazocine] | No |

Let's switch to this molecule now.
Record Oc1ccc2c(c1)[C@@]13CCCC[C@@]1(O)[C@@H](C2)N(CC1CCC1)CC3 [Butorphanol] ; criterion: Emax no lower than 70%. Met? No
